Origin of measurements: paper PMC12695944

Test Target: T1, CDT1^ΔN (N-terminally truncated CDT1^158-546) (human, UniProt Q9H211 158-546)
T1 construct: CDT1, human, UniProt Q9H211, residues 158-546 (lacks the unstructured N-terminus); Plasmid is in Supplementary Data 1; The His tag serves for capture on the NTA chip in the SPR with peptides; also called standard CDT1 construct; source: E. coli BL21 (DE3), purified (HisTrap Excel, POROS HS, Superdex 200); not shown: His6, N-terminal, kept
T1 sequence (looked up): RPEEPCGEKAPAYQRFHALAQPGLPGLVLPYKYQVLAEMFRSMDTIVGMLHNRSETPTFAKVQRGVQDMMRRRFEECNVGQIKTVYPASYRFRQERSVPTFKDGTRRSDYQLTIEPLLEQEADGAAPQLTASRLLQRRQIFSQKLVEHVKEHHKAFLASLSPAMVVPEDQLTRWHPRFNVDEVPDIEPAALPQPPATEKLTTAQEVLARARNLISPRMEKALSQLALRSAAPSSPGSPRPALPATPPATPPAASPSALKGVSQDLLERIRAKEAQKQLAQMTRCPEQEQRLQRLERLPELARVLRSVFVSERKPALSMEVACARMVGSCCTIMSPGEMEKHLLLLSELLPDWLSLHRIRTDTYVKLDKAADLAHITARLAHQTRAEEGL
Assay Protocol: SPR; multi-cycle; CDT1^ΔN captured by its N-terminal His tag on an NTA chip; geminin peptides 0.49–250 nM (two-fold steps); 25 °C; 10 mM HEPES, 500 mM NaCl, 50 µM EDTA, 1 mM TCEP-HCl, 0.05% Tween-20, pH 8.0; 1:1 kinetic model of analyte dimer:CDT1, steady-state 1:1 model for Gem^96–160 and Gem^102–160
Experimental Setup: both partners purified
Quantity Kind: Kd (nM)
# value in nM; strip the unit string

Gem^76–145 (chemically synthesised peptide) (peptide, UniProt O75496 76-145, looked up, geminin, human, UniProt O75496, residues 76-145; Made on Rink amide resin; The recombinant recGem^76–145 is another molecule, used only in licensing assays; source: synthetic peptide) peptide: Ac-KNLGGVTQESFDLMIKENPSSQYWKEVAEKRRKALYEALKENEKLHKEIEQKDNEIARLKKENKELAEVA-NH2; 5.7

Incoming: So what's the measured Kd for this one? Gem^90–145 (peptide, UniProt O75496 90-145, looked up, geminin, human, UniProt O75496, residues 90-145; Made on Rink amide resin; source: synthetic peptide) peptide: Ac-IKENPSSQYWKEVAEKRRKALYEALKENEKLHKEIEQKDNEIARLKKENKELAEVA-NH2
Outgoing: 93
